assay: counter assay for TAg ATPase ADP read-out – biochemical, ADP-Hunter, fluorescence, counter-screen (AID 2501); conditions: series mostly up to 100 µM;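 note: purified T antigen ATPase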
The whole screen tested about 2,200 compounds, of which about 1,200 (55%) were called active. No cut-off is given here; in the data, nearly all actives have IC50 up to about 92 µM. The set was probably picked from earlier hits. The list shows a part of the results.
The reply should be one of these categories: active, inactive

q: Kindly provide the recorded test outcome for the following compound: `CN(C)c1ccc(NC(=O)CN2CCC(O)(c3ccccc3)CC2)cc1`
a: active

q: Kindly provide the recorded test outcome for the following compound: `Cc1cccc(N2C(=O)NC(=O)/C(=C/c3ccc(-c4ccc(C(=O)O)c(Cl)c4)o3)C2=O)c1`
a: inactive

Continuing:
q: Kindly provide the recorded test outcome for the following compound: `O=C1NC(=O)C(=Cc2ccc(-c3cc(Cl)ccc3[N+](=O)[O-])o2)C(=O)N1`
a: inactive

q: Kindly provide the recorded test outcome for the following compound: `Cc1ccccc1-n1c(O)c(C=Nc2ccc(N(C)C)cc2)c(=O)[nH]c1=O`
a: active

q: Kindly provide the recorded test outcome for the following compound: `Oc1cc2c(cc1O)[C@H]1c3ccccc3CN[C@@H]1CC2`
a: inactive

q: Kindly provide the recorded test outcome for the following compound: `C=C1C(=O)O[C@H]2[C@H]1[C@H](OC(=O)CC(=O)O[C@@H]1C[C@@H](C)[C@@H]3C=CC(=O)[C@@]3(C)[C@H]3OC(=O)C(=C)[C@H]13)C[C@@H](C)[C@H]1C=CC(=O)[C@]12C`
a: inactive

q: Kindly provide the recorded test outcome for the following compound: `CCN1C(=O)/C(=C\c2ccc([N+](=O)[O-])s2)C(=O)NC1=S`
a: inactive
